Each entry below carries its recorded minimal inhibitory concentration, E. coli.
Test system: escherichia coli (E. coli)
Assay: Measurement of minimal inhibitory concentration (MIC), turbidity
Format: cell-based
Conditions: Table 1; 35° C., 14-16 hours
Experimental: 1. Measurement of Minimal Inhibitory Concentration (MIC) […] As a comparative example, specimens to which the E. coli and the S. aureus were added to distilled water, respectively, were cultured at the same time, and the minimal inhibitory concentration of the specimens was measured with reference to specimens subsequent to the culture and the turbidity of the comparative example subsequent to the culture.
metric: minimal inhibitory concentration, E. coli (% weight %)

1) NCCCNCCCN :: 0.312
2) O=S([O-])OS(=O)[O-].[K+].[K+] :: 0.156
3) O=Cc1ccccc1C=O :: 0.156
